tested on: RIPK2; details: concentration: 1 μM, replicates: in singlicate; n = 1;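 further: KINOMEscan kinase panel screen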
Output Met for records whose %Inh is lower than 9%, Not met for records at or above 9%.

Determine if O=c1cc(N2CCOCC2)nc2n(Cc3ccccc3F)ccn12 [GSK2297428] shows %Inh strictly lower than 9%. Met

API: query returns whether the compound falls strictly under 9% in %Inh. Query: Cc1cnc(N)c(/C=C/c2cncc(C(=O)NCCc3ccc(Cl)cc3Cl)c2)c1.Cl [GSK190937] Not met

Field: below-cutoff. Rule: recorded %Inh strictly less than 9%. Subject: `CC(=O)c1c(C)c2cnc(Nc3ccn(C)n3)nc2n(C2CCCC2)c1=O` Met

Does the reported %Inh of the following compound sit strictly below 9%? COc1ccc(Nc2nccc(-c3ccc(NC(=O)c4cc5cc(F)ccc5[nH]4)cc3)n2)cc1 [GSK1229496] Met

Item CS(=O)(=O)Cc1ccc(Nc2nccc(-c3c(-c4cccc(NC(=O)C5CCCCC5)c4)nn4ncccc34)n2)cc1 [GSK350559] : %Inh beneath 9%, strictly? Met

Lab note: %Inh threshold 9%. Does this compound come in strictly under it? Cc1ccccc1Cn1ccn2c(=O)cc(N3CCOCC3)nc12 [GSK2269905] Met

Find out if reported %Inh for `CNC(=O)c1ccc(C)c(-n2c(C)cc(OCc3ccc(F)cc3F)c(Br)c2=O)c1` is less than 9% Met

Does the reported %Inh of the following compound sit strictly below 9%? `CC(=O)c1c(C)c2cnc(Nc3ccc(N4CCNCC4)cn3)nc2n(C2CCCC2)c1=O` Met

Take the compound Fc1ccc(-c2nn3cccc(F)c3c2-c2ccncc2)cc1 [GW475620] and say whether its %Inh is less than 9%. Not met

Is it true that %Inh reported for Cc1nccc(-c2c(-c3ccc(F)cc3)ncn2CCCN2CCOCC2)n1.Cl [SB-282975] is less than 9%? Not met
